system: HT29 colon; experiment: NCI tumour cell line growth inhibition, 48 h
Overview of reported TGI across a group of molecules:

{"MOLECULE": "Clc1sc(Cl)c2c1[C@H](Br)C[C@@H]2Cl", "SYSTEM": "HT29 colon", "TGI": "> 100 µM"}
{"MOLECULE": "C[C@@](Br)(C(=O)O)[C@H](Br)C(=O)O", "SYSTEM": "HT29 colon", "TGI": "> 100 µM"}
{"MOLECULE": "O=c1ncccn1C1OC(CO)C(O)C1F (stereo not drawn)", "SYSTEM": "HT29 colon", "TGI": "> 100 µM"}
{"MOLECULE": "Nc1nc(Cl)cc(NCCCCCCNc2cc(Cl)nc(N)n2)n1", "SYSTEM": "HT29 colon", "TGI": "> 100 µM"}
{"MOLECULE": "CN(C)CN1C(=O)/C(=N\\n2c(-c3ccncc3)n[nH]c2=S)c2ccccc21", "SYSTEM": "HT29 colon", "TGI": "61.5 µM"}
{"MOLECULE": "Cc1cc(Nc2cc(N3CCN(C)CC3)nc(C#Cc3ccccc3)n2)n[nH]1", "SYSTEM": "HT29 colon", "TGI": "8.08 µM"}
{"MOLECULE": "COc1ccccc1Cn1c2c(c3cc(O)ccc31)C(=O)c1ccccc1C2=O", "SYSTEM": "HT29 colon", "TGI": "> 100 µM"}
{"MOLECULE": "CCOc1cccc(/C=N/NC(=O)Cc2ccc(Nc3ccnc(C(F)(F)F)c3)cc2)c1O", "SYSTEM": "HT29 colon", "TGI": "78.6 µM"}
